test system: NCI-H1793; experiment: relative viability (nuclei count vs DMSO), 5 days (fraction); higher = more cells survive; settings: first compound 0.2 µM
Please use Satisfied for relative viability under 0.4 and Not satisfied for everything else, ties included.

The following compounds have reported results that may help.
COCC1(CO)C(=O)C2CCN1CC2 (stereo not given) [PRIMA-1MET] + CC(=O)Nc1cccc(-n2c(=O)n(C3CC3)c(=O)c3c(Nc4ccc(I)cc4F)n(C)c(=O)c(C)c32)c1 [Trametinib] (partner 0.02 µM) : Satisfied
COCC1(CO)C(=O)C2CCN1CC2 (stereo not given) [PRIMA-1MET] + Nc1nc2[nH]cc(CCc3ccc(C(=O)N[C@@H](CCC(=O)O)C(=O)O)cc3)c2c(=O)[nH]1 [Pemetrexed] (partner 0.2 µM) : Not satisfied
COCC1(CO)C(=O)C2CCN1CC2 (stereo not given) [PRIMA-1MET] + Nc1ncn([C@H]2C[C@H](O)[C@@H](CO)O2)c(=O)n1 [Decitabine] (partner 2 µM) : Not satisfied

Now let's try a different one.
Determine whether this compound shows relative viability lower than 0.4 (ties excluded): COCC1(CO)C(=O)C2CCN1CC2 (stereo not given) [PRIMA-1MET] + CC1(C)CCC(c2ccc(Cl)cc2)=C(CN2CCN(c3ccc(C(=O)NS(=O)(=O)c4ccc(N[C@H](CCN5CCOCC5)CSc5ccccc5)c(S(=O)(=O)C(F)(F)F)c4)cc3)CC2)C1 [Navitoclax] (partner 0.5 µM)
Not satisfied

====

Please provide measured relative viability for the entries that follow.
tested on: NCI-H1993; experiment: relative viability (nuclei count vs DMSO), 5 days (fraction); higher = more cells survive; conditions: first compound 0.8 µM
Give bare numbers.

COc1nc(C)cnc1NS(=O)(=O)c1cccnc1-c1ccc(-c2nnco2)cc1 [Zibotentan] + CS(=O)(=O)CCNCc1ccc(-c2ccc3ncnc(Nc4ccc(OCc5cccc(F)c5)c(Cl)c4)c3c2)o1 [Lapatinib] (partner 2 µM) : 0.88

Please look at the following molecule next.
What does the data say about its relative viability? Entry: COc1nc(C)cnc1NS(=O)(=O)c1cccnc1-c1ccc(-c2nnco2)cc1 [Zibotentan] + COc1cc2c(Oc3ccc(NC(=O)C4(C(=O)Nc5ccc(F)cc5)CC4)cc3F)ccnc2cc1OCCCN1CCOCC1 [Foretinib] (partner 0.25 µM)
0.702

====

tested on: NCI-H1755; assay: relative viability (nuclei count vs DMSO), 5 days (fraction); higher = more cells survive; conditions: first compound 0.03162 µM
ENDPOINT_LABEL: relative viability
Give bare numbers.

O=c1cc(N2CCOCC2)oc2c(-c3cccc4c3sc3ccccc34)cccc12 + CC(=O)c1c(C)c2cnc(Nc3ccc(N4CCNCC4)cn3)nc2n(C2CCCC2)c1=O [Palbociclib] (partner 0.5 µM) : 0.455
O=c1cc(N2CCOCC2)oc2c(-c3cccc4c3sc3ccccc34)cccc12 + Cc1nc(Nc2ncc(C(=O)Nc3c(C)cccc3Cl)s2)cc(N2CCN(CCO)CC2)n1 [Dasatinib] (partner 0.075 µM) : 0.412
CCN(CC)CCCCNc1ncc2cc(-c3cc(OC)cc(OC)c3)c(NC(=O)NC(C)(C)C)nc2n1 + Cc1cc(Nc2cc(N3CCN(C)CC3)nc(Sc3ccc(NC(=O)C4CC4)cc3)n2)n[nH]1 [Tozasertib] (partner 0.1 µM) : 0.61
O=c1cc(N2CCOCC2)oc2c(-c3cccc4c3sc3ccccc34)cccc12 + COc1cc2c(Oc3ccc(NC(=O)C4(C(=O)Nc5ccc(F)cc5)CC4)cc3F)ccnc2cc1OCCCN1CCOCC1 [Foretinib] (partner 0.25 µM) : 0.952
CCN(CC)CCCCNc1ncc2cc(-c3cc(OC)cc(OC)c3)c(NC(=O)NC(C)(C)C)nc2n1 + C[C@@H](Oc1cc(-c2cnn(C3CCNCC3)c2)cnc1N)c1c(Cl)ccc(F)c1Cl [Crizotinib] (partner 1 µM) : 0.94

Query: relative viability; subject: O=c1cc(N2CCOCC2)oc2c(-c3cccc4c3sc3ccccc34)cccc12 + CC(=O)Nc1cccc(-n2c(=O)n(C3CC3)c(=O)c3c(Nc4ccc(I)cc4F)n(C)c(=O)c(C)c32)c1 [Trametinib] (partner 0.02 µM)
0.83

====

tested on: NCI-H2405; assay: relative viability (nuclei count vs DMSO), 5 days (fraction); higher = more cells survive; conditions: first compound 0.03162 µM
Answer each item with its documented relative viability.
Numbers only.

CCN(CC)CCCCNc1ncc2cc(-c3cc(OC)cc(OC)c3)c(NC(=O)NC(C)(C)C)nc2n1 + Cc1nc(Nc2ncc(C(=O)Nc3c(C)cccc3Cl)s2)cc(N2CCN(CCO)CC2)n1 [Dasatinib] (partner 0.075 µM) : 0.202
CCN(CC)CCCCNc1ncc2cc(-c3cc(OC)cc(OC)c3)c(NC(=O)NC(C)(C)C)nc2n1 + Nc1ncn([C@H]2C[C@H](O)[C@@H](CO)O2)c(=O)n1 [Decitabine] (partner 2 µM) : 0.728

For the 3 compounds below, give their relative viability values.
1. O=c1cc(N2CCOCC2)oc2c(-c3cccc4c3sc3ccccc34)cccc12 + COc1cccc2cc(-c3nc([C@H]4CC[C@H](C(=O)O)CC4)n4ncnc(N)c34)[nH]c12 [OSI-027] (partner 0.5 µM)
2. CCN(CC)CCCCNc1ncc2cc(-c3cc(OC)cc(OC)c3)c(NC(=O)NC(C)(C)C)nc2n1 + NC(=O)Nc1cc(-c2cccc(F)c2)sc1C(=O)N[C@H]1CCCNC1 [AZD7762] (partner 0.2 µM)
3. O=c1cc(N2CCOCC2)oc2c(-c3cccc4c3sc3ccccc34)cccc12 + O=C(CCCCCCC(=O)Nc1ccccc1)NO [Vorinostat] (partner 1 µM)

1: 0.615; 2: 0.734; 3: 1.04

====

Field: relative viability. Provide a value for each of the compounds that follow.
test system: NCI-H1915; test: relative viability (nuclei count vs DMSO), 5 days (fraction); higher = more cells survive; conditions: first compound 2.53 µM
One number for each entry.

// solved cases for relative viability follow
COc1nc(C)cnc1NS(=O)(=O)c1cccnc1-c1ccc(-c2nnco2)cc1 [Zibotentan] + N=C(N)NC(=N)NCCc1ccccc1 [Phenformin] (partner 250 µM) : 0.289
O=c1cc(-c2cccc3c2Sc2ccccc2S3)oc(N2CCOCC2)c1 + Cc1nc(Nc2ncc(C(=O)Nc3c(C)cccc3Cl)s2)cc(N2CCN(CCO)CC2)n1 [Dasatinib] (partner 0.075 µM) : 0.306
COc1nc(C)cnc1NS(=O)(=O)c1cccnc1-c1ccc(-c2nnco2)cc1 [Zibotentan] + Nc1nc2[nH]cc(CCc3ccc(C(=O)N[C@@H](CCC(=O)O)C(=O)O)cc3)c2c(=O)[nH]1 [Pemetrexed] (partner 0.2 µM) : 0.526

State the recorded relative viability for every item in the following list.
1. O=c1cc(-c2cccc3c2Sc2ccccc2S3)oc(N2CCOCC2)c1 + COc1cc2c(Oc3ccc(NC(=O)C4(C(=O)Nc5ccc(F)cc5)CC4)cc3F)ccnc2cc1OCCCN1CCOCC1 [Foretinib] (partner 0.25 µM)
2. O=c1cc(-c2cccc3c2Sc2ccccc2S3)oc(N2CCOCC2)c1 + CC(C)C[C@H](NC(=O)[C@H](Cc1ccccc1)NC(=O)c1cnccn1)B(O)O [Bortezomib] (partner 0.002 µM)
3. O=c1cc(-c2cccc3c2Sc2ccccc2S3)oc(N2CCOCC2)c1 + N=C(N)NC(=N)NCCc1ccccc1 [Phenformin] (partner 250 µM)
4. COc1nc(C)cnc1NS(=O)(=O)c1cccnc1-c1ccc(-c2nnco2)cc1 [Zibotentan] + Cc1nc(NC(=O)N2CCC[C@H]2C(N)=O)sc1-c1ccnc(C(C)(C)C(F)(F)F)c1 [Alpelisib] (partner 2 µM)

1. 1.06
2. 0.974
3. 0.355
4. 1.03

====

tested on: NCI-H2405; assay: relative viability (nuclei count vs DMSO), 5 days (fraction); higher = more cells survive; conditions: first compound 0.2 µM
Record form. Attribute: relative viability. Fill in for each entry.
Give bare numbers.

COCC1(CO)C(=O)C2CCN1CC2 (stereo not drawn) [PRIMA-1MET] + O=C(c1cc(Cc2n[nH]c(=O)c3ccccc23)ccc1F)N1CCN(C(=O)C2CC2)CC1 [Olaparib] (partner 8 µM) : 0.947
COCC1(CO)C(=O)C2CCN1CC2 (stereo not drawn) [PRIMA-1MET] + NC(=O)Nc1cc(-c2cccc(F)c2)sc1C(=O)N[C@H]1CCCNC1 [AZD7762] (partner 0.2 µM) : 0.753

# get_value(readout='relative viability', item= COCC1(CO)C(=O)C2CCN1CC2 (stereo not drawn) [PRIMA-1MET] + C[C@]1(O)C[C@@H](c2nc(-c3ccc4ccc(-c5ccccc5)nc4c3)c3c(N)nccn32)C1 [Linsitinib] (partner 1 µM) )
0.635

====

system: NCI-H1355; experiment: relative viability (nuclei count vs DMSO), 5 days (fraction); higher = more cells survive; conditions: first compound 0.2 µM
Exercise: state measured relative viability for each of the compounds provided.
Answers are plain numbers.

Below, each entry is followed by its recorded relative viability result.
COCC1(CO)C(=O)C2CCN1CC2 (stereo not drawn) [PRIMA-1MET] + COc1cc2c(Oc3ccc(NC(=O)C4(C(=O)Nc5ccc(F)cc5)CC4)cc3F)ccnc2cc1OCCCN1CCOCC1 [Foretinib] (partner 0.25 µM) : 1.02
COCC1(CO)C(=O)C2CCN1CC2 (stereo not drawn) [PRIMA-1MET] + Cc1nc(NC(=O)N2CCC[C@H]2C(N)=O)sc1-c1ccnc(C(C)(C)C(F)(F)F)c1 [Alpelisib] (partner 2 µM) : 0.953

Any idea what relative viability was measured for COCC1(CO)C(=O)C2CCN1CC2 (stereo not drawn) [PRIMA-1MET] + CS(=O)(=O)CCNCc1ccc(-c2ccc3ncnc(Nc4ccc(OCc5cccc(F)c5)c(Cl)c4)c3c2)o1 [Lapatinib] (partner 2 µM) ?
1.12
